System: SK-LMS-1 (Other Solid Carcinomas)
Assay: combination Emax (second highest fraction inhibited in the dose matrix, 72 h); higher = more inhibition; extreme values may be limits of the assay
Kind request: treat 0.3 as inclusive, so combination Emax at 0.3 or higher is class 1, anything lower is class 0.

Query block: Would you say CN(CCO)CC[C@H](CSc1ccccc1)Nc1ccc(S(=O)(=O)NC(=O)c2ccc(N3CCC([C@@H](O)c4ccccc4-c4ccc(Cl)cc4)CC3)cc2)cc1S(=O)(=O)C(F)(F)F [AZD4320] + CCN(CCO)CCCOc1ccc2c(Nc3cc(CC(=O)Nc4cccc(F)c4)[nH]n3)ncnc2c1 [AZD2811] (first compound max 1 µM, 7x7, partner max 1 µM) shows combination Emax at minimum 0.3?
Result block: class 1

Query block: Form field: combination Emax at least 0.3? Entry: Cn1cnc2c(F)c(Nc3ccc(Br)cc3Cl)c(C(=O)NOCCO)cc21 [Selumetinib] + CCN(CCO)CCCOc1ccc2c(Nc3cc(CC(=O)Nc4cccc(F)c4)[nH]n3)ncnc2c1 [AZD2811] (first compound max 10 µM, 7x7, partner max 1 µM)
Result block: class 1

Query block: Confirm if combination Emax reported for the compound CS(=O)(=O)CCNCc1ccc(-c2ccc3ncnc(Nc4ccc(OCc5cccc(F)c5)c(Cl)c4)c3c2)o1 [Lapatinib] + C[C@@H](Oc1cc(-c2cnn(C3CCNCC3)c2)cnc1N)c1c(Cl)ccc(F)c1Cl [Crizotinib] (first compound max 10 µM, 7x7, partner max 10 µM) is 0.3 or above.
Result block: class 1

Query block: Is reported combination Emax greater than or equal to 0.3 here: CN(CCO)CC[C@H](CSc1ccccc1)Nc1ccc(S(=O)(=O)NC(=O)c2ccc(N3CCC([C@@H](O)c4ccccc4-c4ccc(Cl)cc4)CC3)cc2)cc1S(=O)(=O)C(F)(F)F [AZD4320] + CC(=O)O[C@H]1C(=O)[C@@]2(C)[C@H]([C@H](OC(=O)c3ccccc3)[C@]3(O)C[C@H](OC(=O)[C@H](O)[C@@H](NC(=O)c4ccccc4)c4ccccc4)C(C)=C1C3(C)C)[C@]1(OC(C)=O)CO[C@@H]1C[C@@H]2O [Paclitaxel] (first compound max 1 µM, 7x7, partner max 3 µM)
Result block: class 1

Query block: Check if combination Emax >= 0.3 (inclusive). Item: Cc1c2c(nn1C)CSCc1cc(n(C)n1)CSc1cc(c3ccccc3c1)OCCCc1c(C(=O)O)n(C)c3c-2c(Cl)ccc13 [AZD5991] + Cc1cc2ncnn2cc1Nc1ncc2c(n1)n(C1CCOCC1)c(=O)n2C [AZD7648] (first compound max 1 µM, 7x7, partner max 10 µM)
Result block: class 1

Query block: // inclusive: combination Emax at least 0.3? input: CC1(C)CCC(CN2CCN(c3ccc(C(=O)NS(=O)(=O)c4ccc(NCC5CCOCC5)c([N+](=O)[O-])c4)c(Oc4cnc5[nH]ccc5c4)c3)CC2)=C(c2ccc(Cl)cc2)C1 [Venetoclax] + CCN(CCO)CCCOc1ccc2c(Nc3cc(CC(=O)Nc4cccc(F)c4)[nH]n3)ncnc2c1 [AZD2811] (first compound max 1 µM, 7x7, partner max 1 µM)
Result block: class 0
